These measurements were taken from ChEMBL document CHEMBL1770097.

# System Under Test: Dipeptidyl peptidase 4 (Homo sapiens, UniProt P27487)
# Sequence (P27487 whole entry, looked up): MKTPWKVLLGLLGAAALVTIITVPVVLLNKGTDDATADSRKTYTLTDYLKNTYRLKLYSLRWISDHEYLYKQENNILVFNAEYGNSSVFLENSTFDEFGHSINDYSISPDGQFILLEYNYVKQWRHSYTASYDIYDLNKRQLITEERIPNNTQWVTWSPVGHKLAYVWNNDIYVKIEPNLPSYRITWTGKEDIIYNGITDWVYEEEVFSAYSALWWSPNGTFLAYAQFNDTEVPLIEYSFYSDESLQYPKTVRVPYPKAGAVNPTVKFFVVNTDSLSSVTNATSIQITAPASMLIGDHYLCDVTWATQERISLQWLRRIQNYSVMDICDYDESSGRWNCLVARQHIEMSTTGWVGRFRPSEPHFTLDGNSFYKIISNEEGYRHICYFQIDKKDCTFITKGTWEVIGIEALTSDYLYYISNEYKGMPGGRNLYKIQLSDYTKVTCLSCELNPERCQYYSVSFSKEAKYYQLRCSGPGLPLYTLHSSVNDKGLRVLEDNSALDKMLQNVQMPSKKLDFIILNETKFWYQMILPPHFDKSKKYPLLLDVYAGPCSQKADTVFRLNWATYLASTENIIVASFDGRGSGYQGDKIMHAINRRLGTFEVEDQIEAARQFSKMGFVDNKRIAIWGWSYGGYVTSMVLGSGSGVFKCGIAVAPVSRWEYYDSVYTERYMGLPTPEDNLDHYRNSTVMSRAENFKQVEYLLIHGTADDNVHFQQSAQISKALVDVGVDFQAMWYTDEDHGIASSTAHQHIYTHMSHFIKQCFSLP
# Assay Remarks: Inhibition of DPP4 at 10 uM assessed as […] release after 1 hr relative to control
Parameter: inhibition (%)

Take a look at these entries with their results.
>  <Structure Notation>
O=C1c2c(Cl)c(Cl)c(Cl)c(Cl)c2C(=O)N1c1ccccc1CCc1ccccc1

>  <Value Observed>
7

$$$$
>  <Structure Notation>
O=C1c2c(Cl)c(Cl)c(Cl)c(Cl)c2C(=O)N1c1ccc(CCc2ccccc2)cc1

>  <Value Observed>
12

$$$$
>  <Structure Notation>
O=C1c2c(Cl)c(Cl)c(Cl)c(Cl)c2C(=O)N1c1cccc(CCc2ccc(O)c(O)c2)c1

>  <Value Observed>
5

$$$$

1: COc1ccc(CCc2ccc(N3C(=O)c4c(Cl)c(Cl)c(Cl)c(Cl)c4C3=O)cc2)cc1OC
2: O=C1c2c(Cl)c(Cl)c(Cl)c(Cl)c2C(=O)N1c1cccc(CCc2ccc(F)cc2)c1
Input line: Response body: label of entry with the larger inhibition; valid values 1 , 2 . Respond using the label that marks the chosen record.
Output line: 2
(2: 20%, 1: 3%)
